# Tested on: Hep3B cell
# Test description: Toxicity test of drugs, Hep3B cell cultured in microarray cell chip (3D alginate culture on the chip)
# Assay type: cell-based
# Assay conditions: read-out: IC50 (concentration of drug when 50% of cells shows the growth inhibition), Cell chip according to Invention (3D Hep3B cell culture on the chip); 3D Hep3B cell culture in alginate on the chip; drug cultured for a day; calcein AM / ethidium homodimer-1 staining
// values below are reported pIC50
pIC50 is defined as minus the log10 of a concentration measured in mol/L.

compound_smiles=CO[C@@]12[C@H](COC(N)=O)C3=C(C(=O)C(C)=C(N)C3=O)N1C[C@@H]1N[C@@H]12 measured_number=3.91
compound_smiles=CCN(CC)C(=O)/C(C#N)=C/c1cc(O)c(O)c([N+](=O)[O-])c1 measured_number=3.42
compound_smiles=Cc1ccc(C(=O)c2cc(O)c(O)c([N+](=O)[O-])c2)cc1 measured_number=3.77

// switching to the query molecule
So what pIC50 did O=C(O)Cc1ccccc1Nc1c(Cl)cccc1Cl get with Hep3B cell?
3.43
